# System: U2OS
# experiment_description: Multiplex assay against U2OS
# Assay type: toxicity, cell-based
# stated_conditions: human, 24 h, 1 µM, compound concentration 1 uM, replicate 2
Field: Population Normal (%). Provide a value for each of the compounds that follow.

Use the examples below as a reference point.
compound	value_measured
COc1cccc2cc(-c3nc([C@H]4CC[C@H](C(=O)O)CC4)n4ncnc(N)c34)[nH]c12	94%
Cc1ccc(C(=O)Nc2cccc(C(F)(F)F)c2)cc1Nc1nc(-c2cccnc2)nc2c1cnn2C	96%

Provide each entry's Population Normal (%) from the list below.
1. Cl.O=c1c2cccn2c2ccccc2n1CCCN1CCC(c2ccc(Cl)cc2)CC1
2. CCc1cccc(CC)c1NC(=O)c1nn(C)c2c1CCc1cnc(Nc3ccc(C(=O)NC4CCN(C)CC4)cc3OC(F)(F)F)nc1-2
3. CCN1CCN(Cc2ccc(Nc3ncc(F)c(-c4cc(F)c5nc(C)n(C(C)C)c5c4)n3)nc2)CC1.CS(=O)(=O)O
4. CCOc1cc(C(=O)N2CCC(N3CCN(C)CC3)CC2)ccc1Nc1ncc2c(n1)N(C1CCCC1)c1ccccc1C(=O)N2C
5. CN(C)C(=O)C(CCN1CCC(O)(c2ccc(Cl)cc2)CC1)(c1ccccc1)c1ccccc1.Cl [LOPERAMIDE HYDROCHLORIDE]

*A*
["92%", "89%", "89%", "94%", "95%"]
